Test system: AR mRNA
Assay: Dose-dependent antisense inhibition of human AR in HuVEC cells (electroporation, qRT-PCR RTS3559, IC50)
Type: cell-based
Details: 3000.0 nM; HuVEC, ~16 h; Table 15
Oligonucleotides are written 5' to 3', each unit as a sugar letter and its base; * is a phosphorothioate linkage, no mark a phosphodiester; rarer units and linkages stand in square brackets, end groups in braces. Plain capitals give the bases only. k = constrained ethyl (cEt); [5mC] = 5-methylcytosine; d = 2'-deoxy (DNA)
endpoint label: percent inhibition of AR (%)

> print(dat)
                                  substance  measured
1  549372 (kA*kA*kG*dT*dT*dG*dT*dA*dG*dT*dA*dG*dT*k[5mC]*kG*k[5mC]) [compound 549372]        87
2  586224 (kT*kT*kG*kA*kT*dT*dT*dA*dA*dT*dG*dG*dT*kT*kG*k[5mC]; antisense) [compound 586224]        98
3  586124 (kG*kA*kT*dT*dT*dA*dA*dT*dG*dG*dT*dT*dG*k[5mC]*kA*kA; further chemistry not given here) [compound 586124]        94
4  586225 (kG*kT*kT*kG*kA*dT*dT*dT*dA*dA*dT*dG*dG*kT*kT*kG; antisense) [compound 586225]        97
5  586227 (kT*kG*kA*kT*kT*dT*dA*dA*dT*dG*dG*dT*dT*kG*k[5mC]*kA; antisense) [compound 586227]        96
6  549458 (kG*kT*kT*dG*dA*dT*dT*dT*dA*dA*dT*dG*dG*kT*kT*kG) [compound 549458]        96

* * *

Tested on: prostate-specific antigen (PSA) mRNA
Assay: PSA mRNA levels in LMR20 cells
Type: cell-based, human
Conditions: LMR20 cells, no AR agonist, ASO 0.20 μM
Experimental: LMR20 cells were plated at 1,500 cells per well in phenol red-free medium with CSS. […] Results are presented in Tables 43-45 as mRNA levels expressed as a percentage of the baseline values. mRNA levels may be lowered or increased after treatment.
Oligonucleotides are written 5' to 3', each unit as a sugar letter and its base; * is a phosphorothioate linkage, no mark a phosphodiester; rarer units and linkages stand in square brackets, end groups in braces. Plain capitals give the bases only. e = 2'-O-(2-methoxyethyl) (MOE); l = locked nucleic acid (LNA); k = constrained ethyl (cEt); [5mC] = 5-methylcytosine; d = 2'-deoxy (DNA)
endpoint label: PSA mRNA levels (% baseline value) of cells without AR agonist treatment

substance	measured
554221 (ACCAAGTTTCTTCAGC; sugars from the 5' end l3 d10 l3, all phosphorothioate, methylation of C not given here) [compound 554221]	118
569236 (antisense eT*kG*kA*kT*dT*dT*dA*dA*dT*dG*dG*kT*kT*kG*e[5mC]*eA) [compound 569236]	90
560131 (antisense kT*kT*kG*dA*dT*dT*dT*dA*dA*dT*dG*dG*kT*kT*kG*e[5mC]) [compound 560131]	83
549458 (kG*kT*kT*dG*dA*dT*dT*dT*dA*dA*dT*dG*dG*kT*kT*kG) [compound 549458]	85

* * *

Test system: AR mRNA
Assay: Dose-dependent antisense inhibition of human AR in HuVEC cells (electroporation, qRT-PCR RTS3559, IC50)
Format: cell-based
Conditions: Table 34; HuVEC, electroporation, approximately 16 hours
Oligonucleotides are written 5' to 3', each unit as a sugar letter and its base; * is a phosphorothioate linkage, no mark a phosphodiester; rarer units and linkages stand in square brackets, end groups in braces. Plain capitals give the bases only. k = constrained ethyl (cEt); [5mC] = 5-methylcytosine; d = 2'-deoxy (DNA)
Property: IC50; scope: individual substances
endpoint label: IC50 (nM)

> print(dat)
                                  substance  endpoint.label  units.label  measured
1  584125 (kG*k[5mC]*k[5mC]*dA*dT*dG*dA*dG*dA*d[5mC]*dA*dG*d[5mC]*kT*kT*kT; antisense) [compound 584125]            IC50           nM       720
2  583996 (k[5mC]*kG*k[5mC]*d[5mC]*dA*dG*dG*dG*dT*dA*d[5mC]*d[5mC]*dA*k[5mC]*kA*k[5mC]; antisense) [compound 583996]            IC50           nM       710
3  583999 (kA*k[5mC]*k[5mC]*dA*dT*dG*d[5mC]*d[5mC]*dG*d[5mC]*d[5mC]*dA*dG*kG*kG*kT; antisense) [compound 583999]            IC50           nM      1530
4  583990 (kA*k[5mC]*kA*d[5mC]*dA*dT*d[5mC]*dA*dG*dG*dT*dG*d[5mC]*kG*kG*kT; antisense) [compound 583990]            IC50           nM      1920
5  583922 (kA*kG*kT*dT*dG*dT*dA*dG*dT*dA*dG*dT*d[5mC]*kG*k[5mC]*kG; antisense) [compound 583922]            IC50           nM       230
6  583933 (k[5mC]*kA*kG*d[5mC]*dG*dG*dG*dT*dT*d[5mC]*dT*d[5mC]*d[5mC]*kA*kG*k[5mC]; antisense) [compound 583933]            IC50           nM       410

* * *

Tested on: AR mRNA
Assay: AR mRNA in LnCaP cells by free uptake (hAR_LTS00943)
Type: cell-based, human
Conditions: 10 μM, 24 hrs
Oligonucleotides are written 5' to 3', each unit as a sugar letter and its base; * is a phosphorothioate linkage, no mark a phosphodiester; rarer units and linkages stand in square brackets, end groups in braces. Plain capitals give the bases only. e = 2'-O-(2-methoxyethyl) (MOE); k = constrained ethyl (cEt); [5mC] = 5-methylcytosine; d = 2'-deoxy (DNA)
endpoint label: Percent inhibition of AR mRNA (%)

> print(dat)
                                  substance                 endpoint.label  units.label  measured
1  549372 (kA*kA*kG*dT*dT*dG*dT*dA*dG*dT*dA*dG*dT*k[5mC]*kG*k[5mC]) [compound 549372]  Percent inhibition of AR mRNA            %        78
2  586124 (kG*kA*kT*dT*dT*dA*dA*dT*dG*dG*dT*dT*dG*k[5mC]*kA*kA; further chemistry not given here) [compound 586124]  Percent inhibition of AR mRNA            %        82
3  584163 (kG*kA*kA*d[5mC]*dA*dT*dT*dA*dT*dT*dA*dG*dG*k[5mC]*kT*kA) [compound 584163]  Percent inhibition of AR mRNA            %        70
4  569216 (antisense eT*kG*kA*kT*dT*dT*dA*dA*dT*dG*dG*dT*kT*kG*k[5mC]*eA) [compound 569216]  Percent inhibition of AR mRNA            %        82
5  549458 (kG*kT*kT*dG*dA*dT*dT*dT*dA*dA*dT*dG*dG*kT*kT*kG) [compound 549458]  Percent inhibition of AR mRNA            %        89
6  560131 (antisense kT*kT*kG*dA*dT*dT*dT*dA*dA*dT*dG*dG*kT*kT*kG*e[5mC]) [compound 560131]  Percent inhibition of AR mRNA            %        57
7  586227 (kT*kG*kA*kT*kT*dT*dA*dA*dT*dG*dG*dT*dT*kG*k[5mC]*kA; antisense) [compound 586227]  Percent inhibition of AR mRNA            %        59

* * *

System: LMR20 cells
Test: Proliferation of MDV3100-resistant LMR20 cells (MTT; with R1881 or DHT)
Type: cell-based, human
Settings: CSS + DHT, ASO 0.20 μM, 5 days
Property: Percent inhibition of LMR20 cell proliferation; scope: individual sequences
endpoint label: Percent inhibition of LMR20 cell proliferation

seq	measured
TTGATTTAATGGTTGC [ISIS 560131] (MOE and (S)-cEt gapmer chemistry, further chemistry not given here) [targets intron 1]	13%
TGATTTAATGGTTGCA [ISIS 569236] (cEt/MOE gapmer chemistry, further chemistry not given here) [targets intron 1]	10%
GTTGATTTAATGGTTG (all phosphorothioate, sugars by position not given here; further chemistry not fully specified) [ISIS 549458]	25%
ACCAAGTTTCTTCAGC (LNA gapmer, phosphorothioate backbone, further chemistry not given here) [ISIS 554221, 3-10-3 LNA gapmer, phosphorothioate backbone, targeted to exon 4 of AR; benchmark, reference compound]	0%
